Values compiled from patent US20240287048A1.

# measured.target: KAT6A (Homo sapiens)
# Construct: Recombinant human His-tagged Kat6a protein (amino acids 194-810); His
# Sequence (Q92794 194-810): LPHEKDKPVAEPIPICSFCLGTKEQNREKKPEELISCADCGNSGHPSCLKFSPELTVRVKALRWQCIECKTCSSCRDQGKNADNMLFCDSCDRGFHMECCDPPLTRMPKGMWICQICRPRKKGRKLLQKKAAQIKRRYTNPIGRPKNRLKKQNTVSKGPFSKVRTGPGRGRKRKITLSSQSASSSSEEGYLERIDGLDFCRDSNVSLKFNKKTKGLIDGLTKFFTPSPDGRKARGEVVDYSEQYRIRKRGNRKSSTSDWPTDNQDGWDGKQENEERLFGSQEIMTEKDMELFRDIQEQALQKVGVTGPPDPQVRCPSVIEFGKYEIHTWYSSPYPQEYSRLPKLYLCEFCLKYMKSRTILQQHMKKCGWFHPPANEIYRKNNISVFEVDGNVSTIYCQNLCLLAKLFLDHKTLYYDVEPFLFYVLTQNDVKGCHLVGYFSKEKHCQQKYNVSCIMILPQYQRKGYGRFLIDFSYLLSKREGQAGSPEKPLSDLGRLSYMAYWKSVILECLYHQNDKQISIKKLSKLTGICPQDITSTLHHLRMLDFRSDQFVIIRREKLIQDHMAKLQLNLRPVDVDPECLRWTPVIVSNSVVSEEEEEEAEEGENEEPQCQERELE
# experiment.summary: Kat6a activity assay (TR-FRET, acetylation of biotinylated histone H4 peptide)
# condition.label: recombinant human His-tagged Kat6a (amino acids 194-810), 60 mins at 22° C., read-out: KAT6A-DPF/HAT domain IC50 [mol/l] (arithmetic mean)
Measured pIC50 of individual entries
Kindly note that pIC50 refers to -log10 of the concentration in mol/L and answer with the value alone.

1) CCOc1ccc(Oc2ccccc2)cc1S(=O)(=O)NC(=O)c1cc2c(F)cc(C3CC3)cc2o1 [Example 33] ... 8.20
2) Cc1ccc2c(C)c(C(=O)NS(=O)(=O)c3ccccc3-c3ccccc3)oc2c1 [Example 14] ... 6.34
3) Cc1ccc2cccc(S(=O)(=O)NC(=O)c3cc4c(C(F)(F)F)cc(C5CC5)cc4o3)c2n1 [Example 50] ... 8.26

Kindly consider the entry below.
Query: Fill in the blank: the reported pIC50 of O=C(NS(=O)(=O)c1ccccc1-c1ccccc1)c1cc2ccc(C(F)F)cc2o1 [Example 17] is ____.
Reply: 5.89
